# targetUnderTest: High affinity 3',5'-cyclic-AMP phosphodiesterase 7A (Homo sapiens, UniProt Q13946)
# Sequence (Q13946 whole entry): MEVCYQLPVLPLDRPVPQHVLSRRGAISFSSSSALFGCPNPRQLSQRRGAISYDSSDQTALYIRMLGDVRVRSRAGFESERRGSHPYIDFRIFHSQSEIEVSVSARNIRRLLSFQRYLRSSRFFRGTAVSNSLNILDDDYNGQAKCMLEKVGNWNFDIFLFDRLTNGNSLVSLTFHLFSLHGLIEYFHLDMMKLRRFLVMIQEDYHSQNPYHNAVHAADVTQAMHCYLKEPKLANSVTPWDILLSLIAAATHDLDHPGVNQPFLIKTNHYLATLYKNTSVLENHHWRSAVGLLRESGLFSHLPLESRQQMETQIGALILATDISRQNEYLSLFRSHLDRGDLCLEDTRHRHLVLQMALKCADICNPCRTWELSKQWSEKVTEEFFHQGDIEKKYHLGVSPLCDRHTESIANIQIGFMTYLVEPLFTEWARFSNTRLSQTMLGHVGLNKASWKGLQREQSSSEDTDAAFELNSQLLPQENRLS
# assayProcedure: Inhibition of human PDE7A at 10^4 nM using FAM-3',5'-cAMP as substrate after 1 hr by fluorescence polarization assay relative to control
measurementKind: inhibition (%)
The response must be a number in % with no trailing unit.

Request the reported inhibition associated with `O=C(Nc1cccnc1)c1ccc(OC(F)F)c(OC2CCCC2)c1` 3

Also, `O=C(Nc1ccccc1Cl)c1ccc(OC(F)F)c(OCC2CC2)c1` please. 7

Also, `O=C(Nc1ccccc1Cl)c1ccc(OC(F)F)c(OC2CCCC2)c1` please. 3

Pending molecule:
Request the reported inhibition associated with `O=C(Nc1cccnc1)c1ccc(OC(F)F)c(OCC2CC2)c1` 7

###

# targetUnderTest: 3',5'-cyclic-AMP phosphodiesterase 4A (Homo sapiens, UniProt P27815)
# Sequence (P27815 whole entry): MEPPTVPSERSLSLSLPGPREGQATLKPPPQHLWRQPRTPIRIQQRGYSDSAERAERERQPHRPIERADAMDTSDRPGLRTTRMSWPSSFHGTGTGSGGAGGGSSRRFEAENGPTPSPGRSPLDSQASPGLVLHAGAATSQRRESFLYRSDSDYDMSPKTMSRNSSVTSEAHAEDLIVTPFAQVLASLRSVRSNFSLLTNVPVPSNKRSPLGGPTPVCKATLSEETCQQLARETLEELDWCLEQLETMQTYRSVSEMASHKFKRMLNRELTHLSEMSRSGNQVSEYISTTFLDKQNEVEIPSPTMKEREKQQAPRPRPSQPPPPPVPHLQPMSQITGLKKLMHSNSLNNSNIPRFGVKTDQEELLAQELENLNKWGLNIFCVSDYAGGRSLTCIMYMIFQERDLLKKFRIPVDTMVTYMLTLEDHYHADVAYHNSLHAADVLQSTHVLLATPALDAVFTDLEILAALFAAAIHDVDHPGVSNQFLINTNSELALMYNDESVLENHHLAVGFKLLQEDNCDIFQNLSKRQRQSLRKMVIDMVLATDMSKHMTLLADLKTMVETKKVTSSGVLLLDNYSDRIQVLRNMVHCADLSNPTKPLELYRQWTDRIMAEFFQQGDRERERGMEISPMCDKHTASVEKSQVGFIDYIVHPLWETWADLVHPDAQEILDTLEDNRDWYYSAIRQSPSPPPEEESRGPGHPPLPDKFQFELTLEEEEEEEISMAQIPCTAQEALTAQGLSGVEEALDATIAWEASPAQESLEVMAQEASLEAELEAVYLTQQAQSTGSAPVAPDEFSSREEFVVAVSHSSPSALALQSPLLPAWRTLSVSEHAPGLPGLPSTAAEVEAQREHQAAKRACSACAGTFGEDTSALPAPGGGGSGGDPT
Documented IC50 across a set of molecules
The response must be a number in µM with no trailing unit.

The cases that follow already have their IC50 on record.
Request the reported IC50 associated with `O=C(Nc1cccnc1)c1ccc(OC(F)F)c(OC2CCCC2)c1` 0.117

Also, `O=C(Nc1ccccc1Cl)c1ccc(OC(F)F)c(OC2CCCC2)c1` please. 0.095

Also, `O=C(Nc1ccccc1Cl)c1ccc(OC(F)F)c(OCC2CC2)c1` please. 0.126

More entries:
Request the reported IC50 associated with `O=C(Nc1cccnc1)c1ccc(OC(F)F)c(OCC2CC2)c1` 0.076

###

# targetUnderTest: cGMP-inhibited 3',5'-cyclic phosphodiesterase 3B (Homo sapiens, UniProt Q13370)
# Sequence (Q13370 whole entry, looked up): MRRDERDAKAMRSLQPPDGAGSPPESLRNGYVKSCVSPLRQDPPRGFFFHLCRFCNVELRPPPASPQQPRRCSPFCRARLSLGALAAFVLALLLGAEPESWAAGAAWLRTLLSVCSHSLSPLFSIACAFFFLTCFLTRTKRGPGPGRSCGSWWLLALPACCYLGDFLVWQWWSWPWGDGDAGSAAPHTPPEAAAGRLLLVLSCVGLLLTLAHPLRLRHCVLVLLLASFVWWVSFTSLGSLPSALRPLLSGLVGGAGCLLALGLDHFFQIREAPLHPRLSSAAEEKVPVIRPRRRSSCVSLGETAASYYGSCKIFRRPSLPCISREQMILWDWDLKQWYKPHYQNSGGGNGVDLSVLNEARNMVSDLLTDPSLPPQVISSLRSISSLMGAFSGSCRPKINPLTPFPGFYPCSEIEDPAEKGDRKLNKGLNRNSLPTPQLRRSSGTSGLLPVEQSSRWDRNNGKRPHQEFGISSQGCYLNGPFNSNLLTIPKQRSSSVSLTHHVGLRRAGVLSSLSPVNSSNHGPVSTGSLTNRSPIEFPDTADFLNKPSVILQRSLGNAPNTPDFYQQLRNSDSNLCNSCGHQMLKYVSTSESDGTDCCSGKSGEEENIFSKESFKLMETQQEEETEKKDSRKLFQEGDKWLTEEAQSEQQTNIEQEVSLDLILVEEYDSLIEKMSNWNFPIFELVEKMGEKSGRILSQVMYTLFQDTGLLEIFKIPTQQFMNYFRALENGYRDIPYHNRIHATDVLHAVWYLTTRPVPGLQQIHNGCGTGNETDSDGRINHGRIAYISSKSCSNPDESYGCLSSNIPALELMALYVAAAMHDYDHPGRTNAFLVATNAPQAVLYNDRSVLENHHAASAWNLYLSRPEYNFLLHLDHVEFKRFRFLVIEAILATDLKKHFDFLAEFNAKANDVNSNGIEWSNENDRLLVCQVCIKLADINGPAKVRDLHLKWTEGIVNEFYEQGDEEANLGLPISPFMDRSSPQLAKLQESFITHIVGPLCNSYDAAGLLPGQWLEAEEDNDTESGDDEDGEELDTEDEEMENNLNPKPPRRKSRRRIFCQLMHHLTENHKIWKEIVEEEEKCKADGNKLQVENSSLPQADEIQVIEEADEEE
# assayProcedure: Inhibition of human PDE3B at 10^4 nM using FAM-3',5'-cAMP as substrate after 1 hr by fluorescence polarization assay relative to control
measurementKind: inhibition
Report the figure along with its unit, number first.

Request the reported inhibition associated with `O=C(Nc1cccnc1)c1ccc(OC(F)F)c(OCC2CC2)c1` 6%

Also, `O=C(Nc1cccnc1)c1ccc(OC(F)F)c(OC2CCCC2)c1` please. 6%

Also, `O=C(Nc1ccccc1Cl)c1ccc(OC(F)F)c(OC2CCCC2)c1` please. 6%

Pending molecule:
Request the reported inhibition associated with `O=C(Nc1ccccc1Cl)c1ccc(OC(F)F)c(OCC2CC2)c1` 13%

###

# targetUnderTest: High affinity cGMP-specific 3',5'-cyclic phosphodiesterase 9A (Homo sapiens)
# Sequence (O76083 whole entry): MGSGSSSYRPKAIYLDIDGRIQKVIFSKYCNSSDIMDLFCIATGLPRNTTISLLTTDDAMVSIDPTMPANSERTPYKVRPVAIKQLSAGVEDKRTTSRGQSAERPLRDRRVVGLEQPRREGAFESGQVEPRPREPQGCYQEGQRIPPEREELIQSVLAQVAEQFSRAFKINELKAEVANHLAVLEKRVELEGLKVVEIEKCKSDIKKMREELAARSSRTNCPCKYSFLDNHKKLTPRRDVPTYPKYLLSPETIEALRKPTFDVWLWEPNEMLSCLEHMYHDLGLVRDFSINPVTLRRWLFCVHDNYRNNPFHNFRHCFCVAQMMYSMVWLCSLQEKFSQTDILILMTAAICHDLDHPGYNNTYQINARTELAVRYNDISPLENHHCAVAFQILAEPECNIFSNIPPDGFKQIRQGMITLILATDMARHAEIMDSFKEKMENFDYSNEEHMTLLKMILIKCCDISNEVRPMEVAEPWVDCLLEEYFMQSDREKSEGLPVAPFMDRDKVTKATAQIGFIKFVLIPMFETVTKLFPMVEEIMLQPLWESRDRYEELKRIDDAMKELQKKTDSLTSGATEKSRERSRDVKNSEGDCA
# assayProcedure: Inhibition of human PDE9A2 at 10^4 nM using FAM-3',5'-cAMP as substrate after 1 hr by fluorescence polarization assay relative to control
measurementKind: inhibition (%)
The response must be a number in % with no trailing unit.

Request the reported inhibition associated with `O=C(Nc1cccnc1)c1ccc(OC(F)F)c(OC2CCCC2)c1` 4

Also, `O=C(Nc1cccnc1)c1ccc(OC(F)F)c(OCC2CC2)c1` please. 8

Also, `O=C(Nc1ccccc1Cl)c1ccc(OC(F)F)c(OC2CCCC2)c1` please. 6

Pending compound:
Request the reported inhibition associated with `O=C(Nc1ccccc1Cl)c1ccc(OC(F)F)c(OCC2CC2)c1` 3

###

# targetUnderTest: UniProtKB Q9HCR9
# Sequence (Q9HCR9 whole entry, looked up): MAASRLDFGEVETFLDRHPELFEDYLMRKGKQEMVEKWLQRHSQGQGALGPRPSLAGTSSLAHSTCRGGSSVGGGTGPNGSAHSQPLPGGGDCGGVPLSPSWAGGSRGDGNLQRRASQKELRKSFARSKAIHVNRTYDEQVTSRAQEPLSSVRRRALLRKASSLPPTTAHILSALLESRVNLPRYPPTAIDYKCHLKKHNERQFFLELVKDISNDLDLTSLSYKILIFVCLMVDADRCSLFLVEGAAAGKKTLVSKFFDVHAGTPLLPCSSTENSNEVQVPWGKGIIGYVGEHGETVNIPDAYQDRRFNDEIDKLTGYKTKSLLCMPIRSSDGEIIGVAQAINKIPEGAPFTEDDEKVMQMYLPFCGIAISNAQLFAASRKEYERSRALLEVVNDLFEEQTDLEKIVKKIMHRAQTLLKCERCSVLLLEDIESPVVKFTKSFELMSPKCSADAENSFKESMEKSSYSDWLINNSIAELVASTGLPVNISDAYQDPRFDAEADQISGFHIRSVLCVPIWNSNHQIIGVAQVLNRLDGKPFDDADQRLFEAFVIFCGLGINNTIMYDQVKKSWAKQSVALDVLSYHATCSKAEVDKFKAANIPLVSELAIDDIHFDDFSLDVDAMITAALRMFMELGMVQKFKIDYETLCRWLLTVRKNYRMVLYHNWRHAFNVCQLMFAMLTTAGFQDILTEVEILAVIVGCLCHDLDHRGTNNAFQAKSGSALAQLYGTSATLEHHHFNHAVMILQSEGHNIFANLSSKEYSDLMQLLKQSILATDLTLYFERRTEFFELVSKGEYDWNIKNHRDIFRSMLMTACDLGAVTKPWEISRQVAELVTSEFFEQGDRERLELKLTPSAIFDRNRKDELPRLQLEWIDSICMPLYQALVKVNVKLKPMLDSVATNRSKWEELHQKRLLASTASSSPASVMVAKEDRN
# assayProcedure: Inhibition of human PDE11A at 10^4 nM using FAM-3',5'-cAMP as substrate after 1 hr by fluorescence polarization assay relative to control
Documented inhibition across a set of compounds
Report the figure along with its unit, number first.

The cases that follow already have their inhibition on record.
Request the reported inhibition associated with `O=C(Nc1cccnc1)c1ccc(OC(F)F)c(OC2CCCC2)c1` 76%

Also, `O=C(Nc1cccnc1)c1ccc(OC(F)F)c(OCC2CC2)c1` please. 85%

Also, `O=C(Nc1ccccc1Cl)c1ccc(OC(F)F)c(OCC2CC2)c1` please. 5%

Pending compound:
Request the reported inhibition associated with `O=C(Nc1ccccc1Cl)c1ccc(OC(F)F)c(OC2CCCC2)c1` 7%

Sourced from ChEMBL document CHEMBL3875154
